Origin of the recorded values: patent US20130289246A1

Would you kindly list HAI activity for each of these binders?
Target: HA of A/Vietnam/1203/2004 (H5N1) virus (Influenza A virus (H5N1))
Experiment: cell-based or functional assay

binder	HAI activity
mAb 11J19 (antibody, V domains shown) VH: EVQLQESGPGLVKPSETLSLSCTVSGGSITRSSYYWGWIRQPPGKGLEWIGNIYYSGTTYYNPSLKSRVTISVDTSKNQFSLKLSSVTAADTAVYYCARLYGSGLDYWGQGTLVTVS VL: DIQLTQSPSFLSASVGDRVTITCRASQGSSRYVAWYQQKPGKAPKLLILAASTLHTGVPSRFSGSGSGTEFTLTISSLQPEDFATYSCQQLNGFLLTFGGGTKVEIKR	> 20 µg/mL

Report HAI activity for each item below.
1. mAb 8F8 (antibody, V domains shown) VH: EVQLLESGGGVVQPGRSLRLSCAASGFMFSSYVMHWVRQPPGKGLEWVAVIWYDGSKTYFADSMRGRLTVSRDNSKNALYLQMNRLRAEDTAVYYCARQQDSGYSGPEVSYYSHYGMDVWGQGTTVIVS VL: QSVLTQSPSASGTPGRAITISCSGSSSNIGSNPVNWYQQLPGAAPKLLIYADEHRPSGVPDRFSGPKSGTSASLAISGLQSEDEADYYCAAWDDSLSGPAVVFGGGTKLTVLG
2. mAb 7A13 (antibody, V domains shown) VH: QVQLQESAPGLVKPSGTLSLTCAVSGASLSSSDWWTWVRQPPGKGLEWIGEIHHGGSTNSNPSLQSRVTISIDKSKKQFSLKLTSVTVADTAVYYCARAPGADAGPYSENIHHWGQGTLVTVS VL: QLVLTQSPSASASLGASVKLTCTLSSRHSDYAIGWHQQQPGKGPRYLMKLNPDGSHTKGDGIPDRFSGSSSGAERYLTISNLLSEDEADYYCQTWGTGIQVFGGGTRLTVIS
3. mAb 2G1 (antibody, V domains shown) VH: EVQLVESGAEVKKPGSSVKVSCKASGGTFITHVFTWVRQAPGQGLEWVGGFIAIFGTSNYAQKFQGRVTITADESTSTAYMELTSLTSEDTAVYYCARGISGSYGWFDPWGQGTLVTVS VL: DIQLTQSPSSLSASVGDRVTITCQASQDIRKYLNWYQQKPGKAPNLLIYDASNVKTGVPSRFRGSGSGTDFTFTISSLQPEDIATYYCQQYDNLPITFGQGTRLEIKR

Result:
1. > 20 µg/mL
2. > 20 µg/mL
3. > 50 µg/mL
